- Test system: Saccharomyces cerevisiae
- protocol.text: protein stability index of tFT-peptide fusion (C-terminal peptide) (PSI (0-1 scale)); higher = more stable (slower turnover)
- condition: genetic background: das1 deletion; temperature: 30 C
Field: protein stability index. Provide a value for each of the sequences that follow.
Give bare numbers.

Worked cases, protein stability index given:
• DPTTNGSIIKNE [IXR1 C-terminal 12 aa] = 0.679
• CNVCLFPDMYAR [CTF19 C-terminal 12 aa] = 0.71
• AHNFKVPETSKG [PAN2 C-terminal 12 aa] = 0.696

Quick one: give me protein stability index for each item below, same order please.
1. ARGCCEVTSKRF [YGL188C C-terminal 12 aa]
2. NKREFIDSLRPH [AIM20 C-terminal 12 aa]
3. ADESKKEITTGR [MPC2 C-terminal 12 aa]

1. 0.683
2. 0.71
3. 0.714

* * *

- Test system: Saccharomyces cerevisiae
- protocol.text: protein stability index of tFT-peptide fusion (C-terminal peptide) (PSI (0-1 scale)); higher = more stable (slower turnover)
- condition: genetic background: wild type; temperature: 30 C
metric: protein stability index
Give bare numbers.

Examples from the recorded data:
- GPRLSGGLGGVG: 0.637
- ASGSLGQIFSGL: 0.699
- TRRGDRVGVGSA: 0.589

Please go through the list and note protein stability index for each sequence.
1. PLAPPTSASRFS
2. FCSVFAHFLLCH
3. EGRGQRGARAAQ

[0.647, 0.264, 0.718]

* * *

- System: Saccharomyces cerevisiae
- protocol.text: protein stability index of tFT-peptide fusion (C-terminal peptide) (PSI (0-1 scale)); higher = more stable (slower turnover)
- condition: genetic background: wild type; temperature: 30 C
metric: protein stability index

# return protein stability index for each item in the list
1. CLFSVLFPLFFR
2. KKKKKPKKQNSG
3. RLDRARTPPAST
4. WLFFVCEDAGGC
5. LPPRPPPPPPPA
6. IKIKKKKKRNKR
7. VDLGLYGYTDIW

[0.214, 0.659, 0.779, 0.68, 0.626, 0.685, 0.685]

For each listed entry, give its protein stability index.
1. ARQSVYNDLVYV
2. EGACPFLSFRGF
3. SIPVHGPCNRVV

1. 0.582
2. 0.658
3. 0.671

* * *

- System: Saccharomyces cerevisiae
- protocol.text: protein stability index of tFT-peptide fusion (C-terminal peptide) (PSI (0-1 scale)); higher = more stable (slower turnover)
- condition: genetic background: wild type; temperature: 37 C
Field: class. Source value: protein stability index. Ranges: low interval (below 0.3), middle interval (0.3 to below 0.6), high interval (0.6 or more)

Use the examples below as a reference point.
• FSFSCFFFVLFV = low interval
• SSFDFVVSLCIY = middle interval
• GRGVRLRVRLLL = middle interval

Which class holds `EKKKKKRKNKIK` ?
high interval

# classify by protein stability index band: `PLLLLLPSLLLV`
low interval

Lab note: which band did `RGGVRGVRSGRG` land in?
high interval

Each sequence maps to one class by protein stability index. Which class for `VLLLRRPLLVFS` ?
low interval

The entry to classify is `LFFFVCYLATVK` ; which class holds it?
middle interval

Sort `TGVPNPSVAVMC` into one of the categories.
high interval

Assign a category based on measured protein stability index for `LASLSRPFRAKF` and give only the class name.
high interval

Dear colleague, I would appreciate it if you could identify the bin for `IGILVTAVPVFD` and reply at your convenience.
middle interval

Textbook exercise: identify the category of the sequence given here, `PSPRLSLPPRLP` , according to its measured value.
high interval

Lab note: sort `ALWFVLISILCL` into the matching protein stability index band.
middle interval

Hello team, could you let me know which band the following sequence falls into: `FLFWVLLVGCSF`
middle interval

// return the class label for `SLARPGLCFVIA`
middle interval
